Tested On: recombinant human GR (Homo sapiens)
Sequence (P04150 whole entry): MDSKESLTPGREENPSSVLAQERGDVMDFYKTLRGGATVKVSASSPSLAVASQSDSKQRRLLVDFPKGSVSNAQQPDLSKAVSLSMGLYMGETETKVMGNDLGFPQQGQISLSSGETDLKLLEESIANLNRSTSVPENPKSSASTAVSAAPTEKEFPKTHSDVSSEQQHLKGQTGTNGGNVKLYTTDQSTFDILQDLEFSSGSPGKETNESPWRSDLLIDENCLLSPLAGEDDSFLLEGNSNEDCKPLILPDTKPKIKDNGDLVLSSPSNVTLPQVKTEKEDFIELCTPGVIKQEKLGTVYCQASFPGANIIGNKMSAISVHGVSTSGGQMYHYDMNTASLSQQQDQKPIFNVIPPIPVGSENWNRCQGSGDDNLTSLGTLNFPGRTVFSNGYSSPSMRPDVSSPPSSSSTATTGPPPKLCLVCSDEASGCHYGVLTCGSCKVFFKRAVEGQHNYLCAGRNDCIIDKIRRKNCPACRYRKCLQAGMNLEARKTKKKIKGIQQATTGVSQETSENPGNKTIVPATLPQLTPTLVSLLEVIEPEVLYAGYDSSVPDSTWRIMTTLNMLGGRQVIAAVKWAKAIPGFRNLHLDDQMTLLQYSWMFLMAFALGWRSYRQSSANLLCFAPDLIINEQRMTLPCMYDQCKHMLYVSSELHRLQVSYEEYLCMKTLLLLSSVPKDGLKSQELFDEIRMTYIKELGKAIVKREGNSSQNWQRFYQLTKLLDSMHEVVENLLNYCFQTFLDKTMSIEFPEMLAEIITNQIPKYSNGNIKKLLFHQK
Protocol Summary: Human Glucocorticoid Receptor (GR) Assay, fluorescence polarization
Experimental Setup: GS Red tracer, incubated 2 h at r.t., XLfit model 205, read-out: GRhuFL_FP_v2 Mean IC50
pIC50: −log10 of the molar value.
Quantity Kind: pIC50

Illustrative cases are given below, each with its answer.
Compound	Reported Measurement
COc1cccc([C@@H](Oc2ccc3c(cnn3-c3ccc(F)cc3)c2)[C@H](C)NC(=O)c2cc[nH]n2)c1	8.42
C[C@H](NC(=O)C(F)(F)F)[C@H](Oc1cc2cnn(-c3ccc(F)cc3)c2cc1Cl)c1ccc(F)cc1 (racemic)	8.42
COc1cccc([C@@H](Oc2ccc3c(cnn3-c3ccc(F)cc3)c2)[C@H](C)NC(=O)c2ccc(Br)o2)c1	7.92
Cc1cccc([C@@H](Oc2ccc3c(cnn3-c3ccc(F)cc3)c2)[C@H](C)NC(=O)C(C)(C)C)c1	8.26

[A] COC(=O)c1ccc(-n2ncc3cc(O[C@H](c4ccccc4)[C@H](C)NC(=O)c4ccco4)ccc32)cc1
[B] COc1cccc([C@@H](Oc2cc3cnn(-c4ccc(F)cc4)c3cc2C)[C@H](C)NC(=O)C(F)(F)F)c1
[C] CC(=O)N[C@@H](C)[C@H](Oc1cc2cnn(-c3ccc(F)cc3)c2cc1Cl)c1ccc(F)cc1 (single isomer, unassigned) [Example 101]
[Q] List items by pIC50 in falling order. Please list each label once, in the requested order.
[A] B, A, C
(B: 8.42, A: 8.11, C: 7.82)

###

Tested On: recombinant human GR (Homo sapiens)
Protocol Summary: Human Glucocorticoid Receptor (GR) Assay, fluorescence polarization
Experimental Setup: GS Red tracer, incubated 2 h at r.t., XLfit model 205, read-out: GRhuFL_FP_v2 Mean IC50
Quantity Kind: IC50 (nM)

Recorded results for 5 compounds are shown here.
Compound	Unit Descriptor	IC50
CC(C)(C)C(=O)NC(C(Oc1ccc2c(cnn2-c2ccc(F)cc2)c1)c1ccccc1)C(F)(F)F (single isomer, unassigned) [Example 147D1E1]	nM	97
Cc1ccc([C@@H](Oc2ccc3c(cnn3-c3ccc(F)cc3)c2)[C@H](C)NC(=O)C(C)(F)F)cc1F [Example 229]	nM	5.5
Cc1cc(C)c([C@@H](Oc2ccc3c(cnn3-c3ccc(F)cc3)c2)[C@H](C)NC(=O)C2(C)CC2)cc1C [Example 224]	nM	5.7
COc1cccc([C@@H](Oc2ccc3c(cnn3-c3ccc(F)cc3)c2)[C@H](C)NC(=O)c2cc(C)c(C)o2)c1 [Example 286]	nM	4.7
CC(=O)NC(C)C(Oc1cc2cnn(-c3ccc(F)cc3)c2cc1Cl)c1ccc(F)cc1 (racemic) [Example 100]	nM	9.2

[a] Cc1cccc([C@@H](Oc2ccc3c(cnn3-c3ccc(F)cc3)c2)[C@H](C)NC(=O)c2ncc(C)s2)c1 [Example 207]
[b] Cc1cnc(C(=O)N[C@@H](C)[C@H](Oc2ccc3c(cnn3-c3ccc(F)cc3)c2)c2ccc(C)c(C)c2)s1 [Example 192]
[Q] Which of the two gives a bigger number for IC50: a or b ? Please indicate the selected item by its label.
[A] a
(a: 8.8 nM, b: 4.3 nM)

[A] COC(=O)C(=O)N[C@@H](C)[C@H](Oc1ccc2c(cnn2-c2ccc(F)cc2)c1)c1ccccc1 [Example 35]
[B] C[C@H](NC(=O)C(F)(F)F)[C@H](Oc1ccc2c(cnn2-c2ccc(CO)cc2)c1)c1ccccc1 [Example 141]
[C] C[C@H](NC(=O)C(C)(F)F)[C@H](Oc1ccc2c(cnn2-c2ccc(F)cc2)c1)c1cccc(Cl)c1 [Example 232]
[Q] Hi! Can you put these in order of IC50, lowest number first? Form entry: ranked labels (order as requested).
[A] A, B, C
